test system: HL-60; assay: Induction of apoptosis in HL60R leukemia cells after 24 hr r treatment at 0.1E-6M; format: functional, Homo sapiens
reported.endpoint: Apoptosis (%)
Please state the figure in %; there is no need to write the unit.

Prompt: // fetch Apoptosis given entry `O=C(O)/C=C/c1ccc(-c2ccc(O)c(C34CC5CC(CC(C5)C3)C4)c2)c(Cl)c1`
Completion: 51

Prompt: // fetch Apoptosis given entry `Cc1cc(/C=C/C(=O)O)ccc1-c1ccc(O)c(C23CC4CC(CC(C4)C2)C3)c1`
Completion: 10

Prompt: // fetch Apoptosis given entry `CC(=O)NCCCOc1cc(/C=C/C(=O)O)ccc1-c1ccc(O)c(C23CC4CC(CC(C4)C2)C3)c1`
Completion: 0

Prompt: // fetch Apoptosis given entry `Cc1c(-c2ccc(O)c(C34CC5CC(CC(C5)C3)C4)c2)ccc2cc(C(=O)O)ccc12`
Completion: 29

----------
system: MDA-MB-231; assay: Induction of apoptosis in MDA-MB-231 breast cancer cells after 96 hr at 1E-6M; assay type: functional, Homo sapiens
reported.endpoint: Apoptosis (%)
Please state the figure in %; there is no need to write the unit.

Prompt: // fetch Apoptosis given entry `Cc1cc(/C=C/C(=O)O)ccc1-c1ccc(O)c(C23CC4CC(CC(C4)C2)C3)c1`
Completion: 30

Prompt: // fetch Apoptosis given entry `O=C(O)c1ccc2c(Cl)c(-c3ccc(O)c(C45CC6CC(CC(C6)C4)C5)c3)ccc2c1`
Completion: 41

Prompt: // fetch Apoptosis given entry `O=C(O)/C=C/c1ccc(-c2ccc(O)c(C34CC5CC(CC(C5)C3)C4)c2)cc1`
Completion: 58

Prompt: // fetch Apoptosis given entry `O=C(O)/C=C/c1ccc(-c2ccc(O)c(C34CC5CC(CC(C5)C3)C4)c2)c(Cl)c1`
Completion: 43

Prompt: // fetch Apoptosis given entry `O=C(O)c1ccc2cc(-c3ccc(O)c(C45CC6CC(CC(C6)C4)C5)c3)ccc2c1`
Completion: 46

Prompt: // fetch Apoptosis given entry `CC(=O)NCCCOc1cc(/C=C/C(=O)O)ccc1-c1ccc(O)c(C23CC4CC(CC(C4)C2)C3)c1`
Completion: 1

----------
test system: MDA-MB-231; experiment: Induction of apoptosis in MDA-MB-231 breast cancer cells after 96 hr at 0.5E-6M; assay type: functional, Homo sapiens
The label is Fulfilled for Apoptosis below 10% and Not fulfilled for Apoptosis equal to or exceeding 10%.

Prompt: Consider the molecule `O=C(O)c1ccc2c(Cl)c(-c3ccc(O)c(C45CC6CC(CC(C6)C4)C5)c3)ccc2c1` . Is its Apoptosis strictly less than 10%?
Completion: Not fulfilled

Prompt: Consider the molecule O=C(O)c1ccc2cc(-c3ccc(O)c(C45CC6CC(CC(C6)C4)C5)c3)ccc2c1 [O-DEMETHYLATED ADAPALENE] . Is its Apoptosis strictly less than 10%?
Completion: Not fulfilled

Prompt: Consider the molecule `CC(=O)NCCCOc1cc(/C=C/C(=O)O)ccc1-c1ccc(O)c(C23CC4CC(CC(C4)C2)C3)c1` . Is its Apoptosis strictly less than 10%?
Completion: Fulfilled

Prompt: Consider the molecule `Cc1c(-c2ccc(O)c(C34CC5CC(CC(C5)C3)C4)c2)ccc2cc(C(=O)O)ccc12` . Is its Apoptosis strictly less than 10%?
Completion: Not fulfilled

Prompt: Consider the molecule `Cc1cc(/C=C/C(=O)O)ccc1-c1ccc(O)c(C23CC4CC(CC(C4)C2)C3)c1` . Is its Apoptosis strictly less than 10%?
Completion: Fulfilled

Prompt: Consider the molecule `O=C(O)/C=C/c1ccc(-c2ccc(O)c(C34CC5CC(CC(C5)C3)C4)c2)c(Cl)c1` . Is its Apoptosis strictly less than 10%?
Completion: Not fulfilled

Prompt: Consider the molecule O=C(O)/C=C/c1ccc(-c2ccc(O)c(C34CC5CC(CC(C5)C3)C4)c2)cc1 [ADAROTENE] . Is its Apoptosis strictly less than 10%?
Completion: Not fulfilled

----------
test system: HL-60; test: Induction of apoptosis in HL60R leukemia cells after 24 hr r treatment at 0.1E-6M; format: functional, Homo sapiens
Assignment: determine reported Apoptosis for the given molecules.
Please state the figure in %; there is no need to write the unit.

Prompt: // fetch Apoptosis given entry `O=C(O)/C=C/c1ccc(-c2ccc(O)c(C34CC5CC(CC(C5)C3)C4)c2)cc1`
Completion: 90

Prompt: // fetch Apoptosis given entry `CCOc1cc(/C=C/C(=O)O)ccc1-c1ccc(O)c(C23CC4CC(CC(C4)C2)C3)c1`
Completion: 0

Prompt: // fetch Apoptosis given entry `O=C(O)c1ccc2cc(-c3ccc(O)c(C45CC6CC(CC(C6)C4)C5)c3)ccc2c1`
Completion: 78

Prompt: // fetch Apoptosis given entry `O=C(O)c1ccc2c(Cl)c(-c3ccc(O)c(C45CC6CC(CC(C6)C4)C5)c3)ccc2c1`
Completion: 62

Values compiled from ChEMBL document CHEMBL1148284.
